target: C. difficile toxin A from strain VPI10463 (ATCC 43255), toxinotype 0 (Clostridium difficile, UniProt P16154 1-2710); test: BLI (Octet Red96), antibody on Protein A sensor, toxin in solution
Sequence (P16154 whole entry): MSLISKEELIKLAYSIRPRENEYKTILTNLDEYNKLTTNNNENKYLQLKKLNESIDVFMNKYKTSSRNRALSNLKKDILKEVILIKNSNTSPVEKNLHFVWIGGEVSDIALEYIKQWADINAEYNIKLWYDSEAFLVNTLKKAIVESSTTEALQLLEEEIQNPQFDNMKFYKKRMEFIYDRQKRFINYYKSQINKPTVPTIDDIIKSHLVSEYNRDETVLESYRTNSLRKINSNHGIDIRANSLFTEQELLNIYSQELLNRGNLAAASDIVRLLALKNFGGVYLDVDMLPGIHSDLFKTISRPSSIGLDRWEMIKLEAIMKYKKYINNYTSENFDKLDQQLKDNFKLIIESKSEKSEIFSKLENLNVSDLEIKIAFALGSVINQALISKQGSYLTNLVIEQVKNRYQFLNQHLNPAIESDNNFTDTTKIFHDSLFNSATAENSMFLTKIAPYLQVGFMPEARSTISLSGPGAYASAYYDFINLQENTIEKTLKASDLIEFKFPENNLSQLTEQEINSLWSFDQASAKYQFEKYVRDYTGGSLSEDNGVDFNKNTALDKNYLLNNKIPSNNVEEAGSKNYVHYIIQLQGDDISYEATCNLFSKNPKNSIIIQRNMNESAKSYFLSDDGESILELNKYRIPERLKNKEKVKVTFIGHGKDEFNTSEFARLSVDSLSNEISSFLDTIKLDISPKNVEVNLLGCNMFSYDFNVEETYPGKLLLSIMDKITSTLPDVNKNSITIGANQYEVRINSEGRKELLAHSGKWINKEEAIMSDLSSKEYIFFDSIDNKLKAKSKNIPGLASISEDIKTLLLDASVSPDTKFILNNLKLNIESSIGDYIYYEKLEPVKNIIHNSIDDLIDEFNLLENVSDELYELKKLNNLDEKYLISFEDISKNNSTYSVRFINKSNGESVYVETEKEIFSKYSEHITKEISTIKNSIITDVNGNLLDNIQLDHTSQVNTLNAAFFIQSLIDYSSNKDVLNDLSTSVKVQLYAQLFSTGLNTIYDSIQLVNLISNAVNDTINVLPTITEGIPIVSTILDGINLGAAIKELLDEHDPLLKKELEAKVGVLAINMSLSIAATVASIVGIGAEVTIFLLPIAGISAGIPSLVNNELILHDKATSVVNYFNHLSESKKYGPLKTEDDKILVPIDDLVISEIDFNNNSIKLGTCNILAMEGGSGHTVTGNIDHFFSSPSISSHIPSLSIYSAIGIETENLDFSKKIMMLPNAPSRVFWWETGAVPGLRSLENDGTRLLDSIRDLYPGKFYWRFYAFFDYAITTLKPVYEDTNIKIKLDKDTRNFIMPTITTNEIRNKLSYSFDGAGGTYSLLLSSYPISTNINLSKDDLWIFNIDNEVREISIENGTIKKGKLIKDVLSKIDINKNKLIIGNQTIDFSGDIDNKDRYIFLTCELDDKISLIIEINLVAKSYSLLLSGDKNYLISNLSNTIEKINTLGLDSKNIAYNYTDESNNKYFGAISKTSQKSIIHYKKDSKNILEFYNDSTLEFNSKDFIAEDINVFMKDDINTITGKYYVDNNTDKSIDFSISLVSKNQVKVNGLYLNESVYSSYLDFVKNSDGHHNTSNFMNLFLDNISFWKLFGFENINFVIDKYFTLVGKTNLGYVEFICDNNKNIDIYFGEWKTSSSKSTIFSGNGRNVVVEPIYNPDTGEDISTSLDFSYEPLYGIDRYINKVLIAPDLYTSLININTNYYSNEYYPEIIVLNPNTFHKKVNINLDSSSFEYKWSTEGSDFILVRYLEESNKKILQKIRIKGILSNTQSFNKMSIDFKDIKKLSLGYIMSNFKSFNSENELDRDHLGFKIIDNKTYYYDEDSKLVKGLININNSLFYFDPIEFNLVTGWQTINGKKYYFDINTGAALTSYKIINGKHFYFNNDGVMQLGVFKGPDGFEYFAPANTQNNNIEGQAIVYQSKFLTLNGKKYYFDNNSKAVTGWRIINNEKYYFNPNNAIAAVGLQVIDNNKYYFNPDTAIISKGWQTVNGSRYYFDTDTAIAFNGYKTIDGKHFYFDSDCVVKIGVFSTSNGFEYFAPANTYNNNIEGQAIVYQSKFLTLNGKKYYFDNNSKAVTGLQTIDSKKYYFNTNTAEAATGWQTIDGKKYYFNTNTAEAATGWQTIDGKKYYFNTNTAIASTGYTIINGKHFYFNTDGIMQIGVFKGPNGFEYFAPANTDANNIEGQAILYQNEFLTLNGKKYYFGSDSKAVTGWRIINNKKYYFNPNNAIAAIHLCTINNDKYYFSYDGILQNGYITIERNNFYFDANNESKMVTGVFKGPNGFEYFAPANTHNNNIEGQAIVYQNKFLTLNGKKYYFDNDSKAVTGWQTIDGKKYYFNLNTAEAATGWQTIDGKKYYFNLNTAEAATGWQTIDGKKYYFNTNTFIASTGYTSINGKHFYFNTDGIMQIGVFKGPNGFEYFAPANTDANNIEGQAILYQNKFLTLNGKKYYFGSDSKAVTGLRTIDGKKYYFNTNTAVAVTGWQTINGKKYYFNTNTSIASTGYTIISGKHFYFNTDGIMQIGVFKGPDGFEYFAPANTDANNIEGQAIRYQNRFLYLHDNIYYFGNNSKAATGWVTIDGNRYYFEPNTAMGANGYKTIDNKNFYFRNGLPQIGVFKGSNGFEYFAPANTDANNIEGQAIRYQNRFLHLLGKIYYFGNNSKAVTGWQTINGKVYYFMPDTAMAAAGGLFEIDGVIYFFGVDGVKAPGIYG
Listing: koff of selected binders
Report the figure in s⁻¹ without appending any unit label.

Guide cases for koff, answers given:
A2 antibody (antibody, V domains shown) VH: QVQLQESGPGLVKPSETLSLTCTVSGGSISTYYWSWIRQSPGKGLEWMGYIYYSGSTNYNPSLESRVTIAVDTSKNQFSLQLTSVTAADTAVYYCARGAAEWLRFRGFFDSWGQGTLVTVSS VL: ENVLTQSPGTLSLSPGERATLSCRASHSVTNNFLAWYQQKPGQAPRLLIYGVSSRATGIPDRFSGSGSGTDFTLTISRLEPEDFAVYYCQQYGVSGTFGQGTKLEIKR | 1.58e-06
A5 antibody (antibody, V domains shown) VH: QVHLVESGGGVVQPGRSLRLSCATFGLNFSDYGFHWVRQAPGKGLEWVAVTSYDGSNKYYAEFVKGRFTISRDNYKNTVYLQMNSLRLEDTAVYYCARDLAPYNFWSGYGNNWFDPWGQGTLVTVSS VL: EIVMTQSPATLSVSPGERATLSCRASQSISSNLAWYQQKPGQAPRLLIYDASTRATGIPARFSGSGSGTEFTLTISSLQSEDFAVYYCQQYNDWLVTFGQGTKVEIKR | 4.49e-05

Would you kindly share the measured koff for A4 antibody (antibody, V domains shown) VH: QVHLVESGGGVVQPGRSLRLSCATFGLNFSDYGFHWVRQAPGKGLEWVAVTSYDGSNKYYAEFVKGRFTISRDNYKNTVYLQMNSLRLEDTAVYYCARDLAPYNFWSGYGNNWFDPWGQGTLVTVSS VL: EIVLTQSPGTLSLSPGERATLSCRASQSVTGTSLAWFQQKPGQAPRLLIYGASSRATGIPDRFSGSGSGTDFTLTISRLEPEDFAVYYCQQYGSSPRLTFGGGTKVEIKR ?
3.09e-07
